Biological target: T1, GFP-fused huCB1-SMALP (human CB1 in styrene maleic acid lipoparticles) (human, UniProt P21554 1-472)
T1 construct: Prepared as in Luna V. et al. 2018; also called huCB1-GFP-SMALP; wtCB1-SMALP; not shown: GFP fusion
T1 sequence (P21554 whole entry, the tested form may be a part): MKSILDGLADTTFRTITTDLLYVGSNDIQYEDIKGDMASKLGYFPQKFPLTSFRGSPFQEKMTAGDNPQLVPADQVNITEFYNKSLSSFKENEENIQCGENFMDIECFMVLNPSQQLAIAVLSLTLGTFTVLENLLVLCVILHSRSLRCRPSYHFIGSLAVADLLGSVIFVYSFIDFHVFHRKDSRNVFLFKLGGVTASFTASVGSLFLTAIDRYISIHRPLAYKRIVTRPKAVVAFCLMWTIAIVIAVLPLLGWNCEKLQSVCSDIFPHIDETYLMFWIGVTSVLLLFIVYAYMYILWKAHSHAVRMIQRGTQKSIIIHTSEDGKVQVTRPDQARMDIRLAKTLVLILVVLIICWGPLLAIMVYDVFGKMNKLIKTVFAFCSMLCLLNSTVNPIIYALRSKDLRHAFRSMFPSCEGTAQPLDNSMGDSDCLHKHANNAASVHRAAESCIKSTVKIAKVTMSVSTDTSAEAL
Assay: flow cytometry, yeast-displayed IgG, GFP MFI
The following binders are shown together with reported 100 nM huCB1-SMALP binding (normalized to 10D10) values.
Numeric answer only, unit fold assumed.

Example binders with recorded 100 nM huCB1-SMALP binding (normalized to 10D10):
LIBC523797-1 (antibody, IgG1, V domains shown) VH: QVQLQESGPGLVKPSQTLSLTCTVSGGSIRRGGDYWSWIRQHPGKGLEWIGHVYYTGSTKYNPNFKGRATISVNTYKNQFSLKLSSVTAADTAVYYCARDYDILTGYSYYYYGMDVWGQGTTVTVSS VL: DIVMTQSPLSLPVTPGEPASISCRSSQSLLTSYGINYVDWYLQKPGQSPQLLIYQGSNRASGVPDRFSGSGSGTDFTLKISRVEAEDVGVYYCRQAVGLPRTFGQGTKVEIKR ... 7.01
LIBC523844-1 (antibody, V domains shown) VH: QVQLQESGPGLVKPSQTLSLTCTVSGGSIRRGGDYWSWIRQHPGKGLEWIGHVYYTGSTKYNPSFKDRATISVNTYKNQFSLKLSSVTAADTAVYYCARDYDILTGYSYYYYGMDVWGQGTTVTVSS VL: DIVMTQSPLSLPVTPGEPASISCRSSQSLLSSSGANYVDWYLQKPGQSPQLLIYQGSNRASGVPDRFSGSGSGTDFTLKISRVEAEDVGVYYCRQARALPRTFGQGTKVEIKR ... 6.69
LIBC523760-1 (antibody, V domains shown) VH: QVQLQESGPGLVKPSQTLSLTCTVSGGSIRRGGDYWSWIRQHPGKGLEWIGHVYQTGSTKYNPKFKGRATISVNTYKNQFSLKLSSVTAADTAVYYCARDYDILTGYSYYYYGMDVWGQGTTVTVSS VL: DIVMTQSPLSLPVTPGEPASISCRSSQSLLTSSGANYVDWYLQKPGQSPQLLIYLGSNRASGVPDRFSGSGSGTDFTLKISRVEAEDVGVYYCRQAVGTPRTFGQGTKVEIKR ... 5.7

Next:
// lookup 100 nM huCB1-SMALP binding (normalized to 10D10) for LIBC523596-1 (antibody, V domains shown) VH: QVQLQESGPGLVKPSQTLSLTCTVSGGSIRRGGDYWSWIRQHPGKGLEWIGHVYQSGQTAYNPNFEDRATISVNTYKNQFSLKLSSVTAADTAVYYCAREYDVVSGYSYYYYGMDVWGQGTTVTVSS VL: DIVMTQSPLSLPVTPGEPASISCRSSQSLLTSSGYNYVDWYLQKPGQSPQLLIYQGSNRASGVPDRFSGSGSGTDFTLKISRVEAEDVGVYYCMQAVKIPRTFGQGTKVEIKR
4.19
